- experiment description: Retention of arrayed peptides on a polypropylene sheet after successive washes
- Assay type: physicochemical
- experimental conditions: Control array (not washed); scan after first wash
No end group written: not given here. TAMRA = rhodamine dye label at the N-terminus (mixture of 5- and 6-isomers)
readout: Average fluorescence

- substance: "TAMRA-F-G-F-S-F-A-F-D-F-G-F ({TAMRA}-FGFSFAFDFGF) [Peptide P1-1]"
  test value: "244,263,013"
- substance: "TAMRA-F-G-F-G-F-G-F-G-F-G-F-S-F-A-F-D-F-G-F ({TAMRA}-FGFGFGFGFGFSFAFDFGF) [Peptide P1-5]"
  test value: "199,347,483"
- substance: "TAMRA-F-G-F-G-F-G-F-S-F-A-F-D-F-G-F ({TAMRA}-FGFGFGFSFAFDFGF) [Peptide P1-3]"
  test value: "192,743,469"
- substance: "TAMRA-F-G-F-G-F-S-F-A-F-D-F-G-F ({TAMRA}-FGFGFSFAFDFGF) [Peptide P1-2]"
  test value: "200,280,129"

So for TAMRA-F-G-F-G-F-G-F-G-F-S-F-A-F-D-F-G-F ({TAMRA}-FGFGFGFGFSFAFDFGF) [Peptide P1-4] , the logged Average fluorescence turned out to be 187,287,630
